Test system: HOP-62 NSCLC
Experiment: NCI tumour cell line growth inhibition, 48 h
MEASURED_ATTRIBUTE: GI50

I would be grateful if you could share the reported GI50 for O=C(NN1C(=O)CSC12CCCC2)c1[nH]c2ccc(Br)cc2c1-c1ccccc1 .
62.5 µM

Name the reported GI50 value associated with the compound CCOc1ccccc1N=Nc1c(C)[nH]n(-c2nc(-c3ccccc3)cs2)c1=O
35.1 µM

I would be grateful if you could share the reported GI50 for C/C=C(\C)C(=O)O[C@H]1C=CC(=O)O[C@@H]1CC[C@H](O)[C@H](C)O .
> 100 µM

Which GI50 reading was recorded for the compound Cc1cc(N2CCCC2)nc(N(CCNc2ccnc3cc(Cl)ccc23)Cc2ccco2)n1 ?
5.64 µM

Could you tell me which GI50 is on file for O=C(/C=C/c1ccc([N+](=O)[O-])cc1)c1ccc2c3c(cccc13)CC2 ?
11.4 µM

Data request, read-out GI50, for CC[C@H](CO)Nc1nc(NCc2ccccc2)n2ncc(C(C)C)c2n1
2.1 µM

Fill blank: measured GI50 of the compound O=C(COc1ccc(/C=C2\Oc3ccccc3C2=O)cc1)Nc1nc2c(s1)CCCC2 is ____.
22.5 µM

Requested read-out: GI50. Entry: O=C(Nc1cccc(NC(=O)Nc2cc(C(F)(F)F)ccc2Cl)c1)Nc1cc(C(F)(F)F)ccc1Cl
1.35 µM

Entry under review: O=C(Nc1ccc(Cl)c(Cl)c1)O/N=C\c1c(Cl)ccc([N+](=O)[O-])c1Cl . Reported GI50?
3.07 µM

GET /values?readout=GI50&item= COc1ccc(C2SC(C)C(=O)N2NC(=O)C(O)c2ccccc2)cc1OC (stereo not drawn)
> 100 µM

Field request: GI50 | item: COc1ccc(C(=O)/C=C/c2c(Cl)c3c(c(OC)c2Cl)OCC(=O)N3)cc1
2.8 µM

Look up GI50 for this compound: COc1cccc(-n2ncc3c(N/N=C/c4ccncc4)ncnc32)c1
> 25 µM

# GI50 lookup, item COc1ccc2c(c1)C(=O)c1c-2c(N(C)C)nc2ccccc12
> 100 µM

* * *

Test system: M14 melanoma
Test: NCI tumour cell line growth inhibition, 48 h; in the data active = GI50 below about 0.43 µM; inactive = the rest
In this exercise, the only acceptable responses are y for active, n for inactive

Below are worked cases with known answers.
C/C=C(\C)C(=O)O[C@H]1C=CC(=O)O[C@@H]1CC[C@H](O)[C@H](C)O: n
O=C(COc1ccc(/C=C2\Oc3ccccc3C2=O)cc1)Nc1nc2c(s1)CCCC2: n
CN(C)c1ccc2c(c1)OC(N)=C(C#N)C2c1ccc2c(c1)CCO2 (stereo not given): y
C[CH2][Sn]([CH2]C)([O]C(=O)C(OC(C)=O)c1ccccc1)[O]C(=O)C(OC(C)=O)c1ccccc1 (stereo not given): n

Here is the next item to consider.
Outcome logged for O=[N+]([O-])c1cccc([As]=[As]c2cccc([N+](=O)[O-])c2)c1 (stereo not given) in this assay:
y

* * *

Attribute: TGI
Test system: SF-539 CNS
Test: NCI tumour cell line growth inhibition, 48 h

Solved cases below.
O=C(O)c1ccn(-c2cccc(-n3ccc(C(=O)O)n3)n2)n1: > 100 µM
C=C1C(=O)OC2/C=C(/C)C(OC(C)=O)CC(O)/C(C)=C\C(OC(=O)/C(C)=C\C)C12 (stereo not given): > 100 µM
CC1=C2C(=CC(C)(C)C2O)C(=O)C(C)(O)C12CC2 (stereo not given): 0.0604 µM
CCOC(=O)c1c(N2CCCC2)ncn(Cc2ccccc2)c1=S: > 100 µM
COC(=O)C(Cc1ccccc1)NP(=O)(O)OCC1OC(n2cc(F)c(=O)[nH]c2=O)CC1O (stereo not given): 63.9 µM
CCOc1cc(C2CC(c3ccc(NS(=O)(=O)c4cc([N+](=O)[O-])ccc4C)cc3)=NN2c2ccc([N+](=O)[O-])cc2[N+](=O)[O-])ccc1O (stereo not given): 25.5 µM
CS[C@]12C(=O)C[C@@]3(C)[C@@H](CC[C@]3(O)C(=O)CO)[C@@H]1CCC1=CC(=O)CC[C@@]12C: > 100 µM
CCN(CC)c1ccc2cc(C(=O)Nc3cccc4ccccc34)c(=N)oc2c1: > 100 µM
Cc1c2c(n(CCc3ccc(Cl)cc3)c1C)NC(c1ccccc1)C(C#N)S2(=O)=O (stereo not given): > 100 µM
COC(=O)c1c(O)ccc2c1c1c(n2Cc2cccc(C)c2)C(=O)c2ccccc2C1=O: 28.2 µM

Quick check: TGI of CC(C)c1cccc2sc(NC(=O)C(=O)C(C#N)c3cccc4ccccc34)nc12 (stereo not given) ?
> 100 µM

Entry O=C1c2cc3c(cc2CC12Cc1ccc4c(c1C2=O)CCCC4)CCCC3 (stereo not given) has what TGI?
> 100 µM

What value of TGI has been recorded for this entry: COc1ccc(-n2c(=O)n(C)c(=O)n2-c2ccc(OC)cc2)cc1
> 100 µM

Field request: TGI | item: O=c1ccn(CC2(CO)CC(Cc3ccccc3)C2)c(=O)[nH]1 (stereo not given)
> 100 µM

# input molecule: CC1(C)C2C=CC1(C)C1(CC2)OCCO1 (stereo not given) ; wanted: its TGI
> 100 µM

I would be grateful if you could share the reported TGI for COc1cccc(-n2ncc3c(N/N=C/c4ccncc4)ncnc32)c1 .
> 25 µM

// lookup TGI for Cc1cc(Cl)ccc1NC(=O)CC/C(CC(=O)C(C)C)=N\NC(=O)C[n+]1ccccc1
> 100 µM

* * *

Tested on: SW-620 colon
Assay: NCI tumour cell line growth inhibition, 48 h; in the data active means GI50 below about 0.43 µM; inactive means the rest
Return exactly one item of y (active), n (inactive)

COc1ccc(OC)c(-c2c(C#N)c(N)nc(N3CCOCC3)c2C#N)c1: n
CCCCN(CCCC)c1ccc(C(=N)c2ccc(N(CCCC)CCCC)cc2)cc1: y
C[CH2][Sn]([CH2]C)([O]C(=O)C(OC(C)=O)c1ccccc1)[O]C(=O)C(OC(C)=O)c1ccccc1 (centres undefined): n

Which outcome did this test record for the molecule CN1CC[C@@H](c2c(O)cc(O)c3c(=O)cc(-c4ccccc4Cl)oc23)[C@@H]1CO ?
y

* * *

Tested on: EKVX NSCLC
Assay: NCI tumour cell line growth inhibition, 48 h
Catalogue of compounds with associated TGI

Worked examples follow.
COC(=O)c1cc2ccc(OC(C)=O)c(OC(C)=O)c2cn1: 38.1 µM
CC1=NN(c2nc(N)nc(/C(C#N)=C/c3cccn3-c3cc(Cl)cc(Cl)c3)n2)C(C)(C)C1: > 100 µM

// next item, TGI requested
# TGI lookup, item CCOC(=O)C(=Cc1cccnc1C)C(=O)OCC
42.1 µM

* * *

Each item that follows carries a reported TGI.
System: NCI-H23 lung
Experiment: NCI tumour cell line growth inhibition, 48 h

Answered examples (5):
COc1ccc(C)cc1Nc1nnc(-c2ccccc2N)s1: > 100 µM
Cc1c2c(n(CCc3ccc(Cl)cc3)c1C)NC(c1ccccc1)C(C#N)S2(=O)=O (stereo unspecified): > 100 µM
Cn1cc(C2=C(c3cccc(OCC(O)CO)c3)C(=O)NC2=O)c2ccccc21 (stereo unspecified): > 25 µM
O=c1oc2ccccc2cc1-c1cn2cc(Cl)ccc2n1: 21.1 µM
CCOC(=O)C(NC(=O)CC)(Nc1cc(C)on1)C(F)(F)F (stereo unspecified): > 100 µM

Now turn to the next compound.
// TGI lookup, key: Oc1c([Si](c2ccccc2)(c2ccccc2)c2ccccc2)cc2ccccc2c1-c1c(O)c([Si](c2ccccc2)(c2ccccc2)c2ccccc2)cc2ccccc12
> 100 µM

* * *

System: MALME-3M melanoma
Assay: NCI tumour cell line growth inhibition, 48 h; in the data active = GI50 below about 0.43 µM; inactive = the rest
A correct response names exactly one class from active, inactive

C/C=C(\C)C(=O)O[C@H]1C=CC(=O)O[C@@H]1CC[C@H](O)[C@H](C)O: inactive
CCc1ccc(NC(=O)COC(=O)c2cc([N+](=O)[O-])ccc2Sc2nnnn2C)cc1: inactive
O=C(/C=C/c1ccc([N+](=O)[O-])cc1)c1ccc2c3c(cccc13)CC2: inactive
C1CN(SSN2CCOCC2)CCO1: inactive
O=[N+]([O-])c1cccc([As]=[As]c2cccc([N+](=O)[O-])c2)c1 (stereo not given): active
Cn1cc(C2=C(c3cccc(OCC(O)CO)c3)C(=O)NC2=O)c2ccccc21 (stereo not given): inactive
CCOc1ccccc1N=Nc1c(C)[nH]n(-c2nc(-c3ccccc3)cs2)c1=O: inactive
CC[C@H](CO)Nc1nc(NCc2ccccc2)n2ncc(C(C)C)c2n1: inactive

Give the logged outcome of this assay for the following compound: CN1CC[C@@H](c2c(O)cc(O)c3c(=O)cc(-c4ccccc4Cl)oc23)[C@@H]1CO
active

For O=C(Nc1cccc(NC(=O)Nc2cc(C(F)(F)F)ccc2Cl)c1)Nc1cc(C(F)(F)F)ccc1Cl , what call appears in the results of this test?
inactive

* * *

System: A498 renal
Assay: NCI tumour cell line growth inhibition, 48 h
Classification field: enter y for TGI values not below 40 µM, n for values below it.

CCOC(=O)c1c(N2CCCC2)ncn(Cc2ccccc2)c1=S: y
C[C@@H]1CC[C@H]2C(C(O)CCCCC(O)C3=C(C(F)(F)F)O[C@@H]4O[C@@]5(C)CC[C@H]6[C@H](C)CC[C@@H]3[C@@]46OO5)=C(C(F)(F)F)O[C@@H]3O[C@@]4(C)CC[C@@H]1[C@]32OO4 (some centres undefined): y
COc1ccc(-c2c(C#N)c(S)n(NS(=O)(=O)c3ccc(C)cc3)c(=O)c2C#N)cc1: y
C[C@]12CC[C@H]3[C@@H](CC[C@]4(O)C[C@@H](O)CC[C@]34/C=N/O)[C@@]1(O)CC[C@@H]2C1=COC(=O)C1: n
Nc1ccccc1CC(O)C(=O)O (centres undefined): y
C[C@H]1C[C@H]2[C@@H]3C(C)(C)O[C@]4(O)C(=O)[C@]5(O)[C@@H](C)CC[C@H]1[C@]25C(=O)[C@]34C: y
O=CN/C=C/c1ccc(O)c(O)c1: y
Cc1ccc(CNc2c3ccccc3nc3cc(NC(=O)CCN4CCCC4)ccc23)cc1: n

Can CN(/N=C/c1cccc2cccnc12)c1ccccc1 be said to have TGI at or above 40 µM?
y

Hello, I need to know if CCCCN(CCCC)c1ccc(C(=N)c2ccc(N(CCCC)CCCC)cc2)cc1 has measured TGI not below 40 µM. Thanks!
n

Tell me whether TGI is at least 40 µM here: CCN(CC)Cc1ccc(Nc2nccc(-c3cnn4ncccc34)n2)cc1
n
